Biological target: murine class II MHC allele E^k on CH27 B cell lymphoma antigen presenting cells (murine)
Experiment: cell-based or functional assay
Non-standard residues stand in square brackets, D forms with d. Ava = NCCCCC(=O)O
MEASUREMENT_LABEL: T cell proliferative response (HT-2 [3H]TdR uptake) at 750 nM

Completed entries (count: 4):
BINDER	OBSERVED
Ac-LRMK[Ava][Ava]IAYLKQATAK-NH2 (SMILES CC[C@H](C)[C@H](NC(=O)CCCCNC(=O)CCCCNC(=O)[C@H](CCCCN)NC(=O)[C@H](CCSC)NC(=O)[C@H](CCCNC(=N)N)NC(=O)[C@H](CC(C)C)NC(C)=O)C(=O)N[C@@H](C)C(=O)N[C@@H](Cc1ccc(O)cc1)C(=O)N[C@@H](CC(C)C)C(=O)N[C@@H](CCCCN)C(=O)N[C@@H](CCC(N)=O)C(=O)N[C@@H](C)C(=O)N[C@H](C(=O)N[C@@H](C)C(=O)N[C@@H](CCCCN)C(N)=O)[C@@H](C)O) [Hybrid 3, Ac-LRMK-ava-ava-IAYLKQATAK-NH2]	31.7 thousands of cpm
Ac-IAYLKQATAK-NH2 [Hybrid 1, Ac-IAYLKQATAK-NH2 (antigenic epitope PGCC 95-104 without Ii-Key)]	27.8 thousands of cpm
Ac-LRMKLPKSIAYLKQATAK-NH2 [Hybrid 4, Ac-LRMKLPKSIAYLKQATAK-NH2]	23.3 thousands of cpm
Ac-LRMK[Ava]IAYLKQATAK-NH2 (SMILES CC[C@H](C)[C@H](NC(=O)CCCCNC(=O)[C@H](CCCCN)NC(=O)[C@H](CCSC)NC(=O)[C@H](CCCNC(=N)N)NC(=O)[C@H](CC(C)C)NC(C)=O)C(=O)N[C@@H](C)C(=O)N[C@@H](Cc1ccc(O)cc1)C(=O)N[C@@H](CC(C)C)C(=O)N[C@@H](CCCCN)C(=O)N[C@@H](CCC(N)=O)C(=O)N[C@@H](C)C(=O)N[C@H](C(=O)N[C@@H](C)C(=O)N[C@@H](CCCCN)C(N)=O)[C@@H](C)O) [Hybrid 2, Ac-LRMK-ava-IAYLKQATAK-NH2]	23.9 thousands of cpm

Here is the next item to consider.
Problem: Fill in the blank: the reported T cell proliferative response (HT-2 [3H]TdR uptake) at 750 nM of Ac-LRMKLPKSAKPVSKIAYLKQATAK-NH2 [Hybrid 6, Ac-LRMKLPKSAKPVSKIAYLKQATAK-NH2] is ____.
Result: 23.4 thousands of cpm

Ref: patent US20100310591A1
